Measured melting point by item

Compound: CC(C)(C)c1cc(C=Cc2cc(C=Cc3cc(C(C)(C)C)cc(C(C)(C)C)c3)cc(CBr)c2)cc(C(C)(C)C)c1
melting point: 222 to 223 °C

Compound: COC(OC)c1cccc(C=Cc2cccc(-n3cccc3)c2)c1
melting point: 108 to 110 °C

Compound: CC(C)(C)C(=O)OC(COc1cccc2[nH]ncc12)CN1CCC(COc2ccccc2)CC1 (stereo not given)
melting point: 116 to 118 °C

Compound: Cc1c(Cc2ccccc2)c(=O)oc2cc(OCC#N)cc(OCC#N)c12
melting point: 147 to 154 °C

Compound: COC(=O)C(Sc1ccc(Cl)cc1)c1ccc(I)cc1 (stereo not given)
melting point: 44 to 46 °C

Compound: CSc1ncncc1C(O)c1ccccc1F (stereo not given)
melting point: 176 to 177 °C

Compound: CCCCc1oc2ccccc2c1-c1ncc(-c2ccc3cc(OCC(=O)O)ccc3c2)o1
melting point: 214 to 216 °C

Compound: CC(C)Nc1nc2cc(F)c(F)c(F)c2n1[C@@H]1O[C@H](C)[C@@H](O)[C@H]1O
melting point: 175 to 178 °C

Compound: CC(=O)CCc1c(OC(C)=O)cc(C(C)C)c(OC(C)=O)c1C(C)C
melting point: 108 to 112 °C

Compound: COc1ccc(S(=O)(=O)Nc2ccccc2NC(=O)c2cnccc2C)cc1
melting point: 199 to 200 °C

Compound: COC(=O)Nc1nc2cc(C(O)c3ccc(F)cc3)ccc2[nH]1 (stereo not given)
melting point: 300 °C

Compound: CCOP(=O)(/C=C/c1cn(-c2ccccc2)nc1OCc1ccc(OCc2nc(-c3ccccc3)cn2C)c(OC)c1)OCC
melting point: 144 to 145 °C

Compound: CCN(CC)CCCC(=O)O
melting point: 45 to 47 °C

Compound: CC(C)CNC(=O)CC1Sc2sc(S(N)(=O)=O)cc2NC1=O (stereo not given)
melting point: > 250 °C

Compound: O=C1CCC(CN2C(=O)C3(COc4cc5c(cc43)CCO5)c3ccccc32)N1 (stereo not given)
melting point: 133 to 136 °C

Compound: Cc1nc(N2C[C@@H](Cc3ccccc3)NC2=O)sc1C(=O)NCc1ccccc1
melting point: 212 to 214 °C

Compound: COC(=O)c1ccccc1Cc1cc2cc(Cl)ccc2n1S(=O)(=O)c1ccc2c(c1)C(C)(C)CO2
melting point: 160 °C

Compound: CCN1CC2CN(CC)CC(C1)C2O (stereo not given)
melting point: 61.5 °C

Compound: Nc1cc(Br)cc(Br)c1N
melting point: 78 to 80 °C

Compound: O=C(O)c1ccc(COc2cccc(-c3c(-c4ccccc4)cnc4c(C(F)(F)F)cccc34)c2)cc1
melting point: 108 to 112 °C

----------
Property: melting point; scope: individual compounds

Compound: O=[N+]([O-])c1cccc2nn(-c3ccccc3)nc12
melting point: 155 to 156 °C
//
Compound: Cc1oncc1-c1cccc(OC2SCC(O)C(O)C2O)c1 (stereo unspecified)
melting point: 180 °C
//
Compound: CCCSc1ncc(CC(N=C(c2ccccc2)c2ccccc2)C(=O)OCC)n1Cc1ccccc1Cl (stereo unspecified)
melting point: 178 to 181 °C
//
Compound: Cc1cccc2c(Cl)nc(Cl)nc12
melting point: 180 to 230 °C
//
Compound: N#CCc1ccc(NS(=O)(=O)c2cccc(Cl)c2Cl)cc1
melting point: 202 to 206 °C
//
Compound: COc1ccc2c(c1)CCC(Cc1ccccc1)C2=O (stereo unspecified)
melting point: 50 to 51 °C
//
Compound: Cc1ccc(NC(=O)c2ccc(C3OCC(SC(C)C(O)(Cn4cncn4)c4ccc(F)cc4F)CO3)cc2)cc1 (stereo unspecified)
melting point: 101 °C
//
Compound: COc1cc(Nc2c(C#N)cnc3cc(-c4ccc(C=O)cc4)ccc23)c(Cl)cc1Cl
melting point: 248 to 251 °C
//
Compound: O=c1[nH]c2cc(Cl)ccc2n1-c1cc(Cl)ccc1O
melting point: 256 to 257 °C
//
Compound: COc1ccc(CNc2ncnc3c2ncn3C2OC(CN=[N+]=[N-])C(O)C2O)cc1 (stereo unspecified)
melting point: 191 °C
//
Compound: CCCCN(CCCC)Cc1nc(-c2ncn3c2[C@@H]2CCN2C(=O)c2c(Cl)cccc2-3)no1
melting point: 120 to 125 °C
//
Compound: COc1ccc(I)c(OCC(O)CNCCc2ccc(OC)c(OC)c2)c1 (stereo unspecified)
melting point: 83 to 88 °C
//
Compound: Cc1ccccc1Nc1nc(Cl)nc2ccccc12
melting point: 192 to 194 °C
//
Compound: CC(C)(C)NC(=O)Nc1nc2nc(N)ncc2cc1-c1ccncc1
melting point: > 350 °C
//
Compound: O=C1Nc2cc3c(cc2O[C@H]1CCCO)CCCC3
melting point: 139 to 140 °C
//
Compound: CSc1oc2ccc(Br)cc2c(=O)c1-c1ccc(Cl)cc1
melting point: 205 to 206 °C
//
Compound: CC(=O)OC1CSC(Oc2ccc(-c3cncc(Cl)c3)nc2)C(OC(C)=O)C1OC(C)=O (stereo unspecified)
melting point: 203 to 205 °C
//
Compound: N#Cc1cc(F)c(N)cc1Oc1ccc2ccccc2c1
melting point: 89 °C
//
Compound: Cc1cc(C)c(COc2cccnc2N)c(C)c1
melting point: 160 to 166 °C
//
Compound: CCn1c(C)nc2cc(C(F)(F)F)c(Cl)c(N)c21
melting point: 176 to 178 °C
//
Compound: CC#CC(C)(C)NC(=O)C(CC)Oc1ccc2ccncc2c1 (stereo unspecified)
melting point: 149 to 150 °C
